Recorded values, source paper PMC7707621.

For each record, write down the corresponding inhibition at 10 µM.
Test system: A2780 cells
experimental.details: MTT antiproliferative assay on A2780
Type: cell-based, human
study.conditions: Homo sapiens, A2780, 10 μM; read-out: Growth inhibition (% ± SEM), A2780

Before answering, review these 3 worked examples.
// recorded inhibition at 10 µM for C=Cc1c(C)c(O)c(OC)c2c3c(ccc12)C(C)(OC)C(=O)C=C3 (stereo not drawn) [Compound 3] : < 10%

In plain terms, C=CC1=C(C)C(=O)C=C2c3ccc(O)c(C)c3CC[C@@]21OCC [Compound 7a] has a documented inhibition at 10 µM of 82.1%

Sample C=CC1=C(C)C(=O)C=C2C3(OC)C=CC(=O)C(C)=C3CCC21OC (stereo not drawn) [Compound 2a] ; inhibition at 10 µM observed: < 10%

Your task in this section: give inhibition at 10 µM for each listed record.
1. C=CC1=C(C)C(=O)C=C2c3ccc(O)c(C)c3CC[C@@]21OC [Compound 4a]
2. C=Cc1c(C)c(O)cc2c1CCc1c-2ccc(O)c1C [juncuenin B]
3. C=CC1=C(C)C(=O)C=C2C3=C(CC[C@@]21OC)[C@@](C)(OC)C(=O)C=C3 [Compound 1a]
4. C=CC1=C(C)C(=O)C(OCCCC)(OCCCC)c2c1ccc1c2C=CC(=O)C1(C)OCCCC (stereo not drawn) [Compound 10]
5. C=CC1=C(C)C(=O)C=C2C3=C(CC[C@@]21OC)[C@](C)(OC)C(=O)C=C3 [Compound 1c]
6. C=CC1=C(C)C(=O)C=C2c3ccc(O)c(C)c3CCC21OCCCC (stereo not drawn) [Compound 11]

[reply]
1. 44.5%
2. 61.2%
3. 25.1%
4. < 10%
5. 68.5%
6. 28.3%

###

Could you please report measured pIC50 for the items listed next?
Tested on: C33A cells
experimental.details: MTT antiproliferative assay on C33A
Assay type: cell-based, human
study.conditions: Homo sapiens, C-33-A; MTT, 0.1–30 μM, 72 h, mean ± SEM; read-out: calculated IC50 values, C33A
Give bare numbers, as −log10 of the molar value.

The reported value for C=CC1=C(C)C(=O)C=C2c3ccc(O)c(C)c3CCC21OCCCC (stereo not shown) [Compound 11] in terms of pIC50 is 4.70

The reported value for C=Cc1c(C)c(O)cc2c1CCc1c-2ccc(O)c1C [juncuenin B] in terms of pIC50 is 4.90

// field: pIC50; key: C=CC1=C(C)C(=O)C=C2C3=C(CCC21OCC)C(C)(OCC)C(=O)C=C3 (single isomer, unassigned) [Compound 6a] ; value = 4.85

Per the record, C=CC1=C(C)C(=O)C=C2C3=C(CC[C@]21OC)[C@@](C)(OC)C(=O)C=C3 [Compound 1b] has pIC50 of 4.99

Consider the record given below.
Value of pIC50 reported for the compound C=CC1=C(C)C(=O)C=C2C3=C(CC[C@]21OC)[C@](C)(OC)C(=O)C=C3 [Compound 1d] is 4.89

###

Test system: SiHa cells
experimental.details: MTT antiproliferative assay on SiHa
Assay type: cell-based, human
study.conditions: Homo sapiens, SiHa; MTT, 0.1–30 μM, 72 h, mean ± SEM; read-out: calculated IC50 values, SiHa
experimental.endpoint: pIC50
Numbers only, as −log10 of the molar value.

C=CC1=C(C)C(=O)C=C2C3=C(CCC21OC)C(C)(OC)C(=O)C=C3 (stereo not shown) [1a–1d] has a reported pIC50 of 4.70

Shifting focus to the molecule that follows.
// recorded pIC50 for C=CC1=C(C)C(=O)C=C2C3=C(CCC21OCC)C(C)(OCC)C(=O)C=C3 (single isomer, unassigned) [Compound 6a] : 4.53
